tested on: Oculimacula yallundae; assay: Resistance index, ratio of EC50 for prochloraz-resistant Oculimacula yallundae isolate ProR2 to EC50 for prochloraz-susceptible Oculimacula yallundae isolate ProS by germ tube elongation inhibition assay; type: functional
The entries below are paired with their reported Ratio EC50.
reported-metric: Ratio EC50

compound="CC(C1CC1)C(O)(Cn1cncn1)c1ccc(Cl)cc1 (stereo not drawn)" meas_value=0.8
compound=CCCOC/C(=N\c1ccc(Cl)cc1C(F)(F)F)n1ccnc1 meas_value=0.8
compound="OC(Cc1ccccc1Cl)(Cn1nc[nH]c1=S)C1(Cl)CC1 (stereo not drawn)" meas_value=1.5
compound="Clc1ccc(C2(Cn3cncn3)CC(Br)CO2)c(Cl)c1 (stereo not drawn)" meas_value=1
compound=CCCN(CCOc1c(Cl)cc(Cl)cc1Cl)C(=O)n1ccnc1 meas_value=75
compound=C[Si](Cn1cncn1)(c1ccc(F)cc1)c1ccc(F)cc1 meas_value=5
compound="Fc1ccc([C@]2(Cn3cncn3)O[C@H]2c2ccccc2Cl)cc1 (relative stereo)" meas_value=3
compound="CC(C)(C)C(O)(CCc1ccc(Cl)cc1)Cn1cncn1 (stereo not drawn)" meas_value=5
